Reported melting point values for the following molecules.

{"Compound String": "CC(C)(C)c1cc(SC2CCN(S(=O)(=O)c3ncc(CO)[nH]3)CC2)cc(C(C)(C)C)c1O", "Measured Quantity": "melting point", "Recorded Result": "122 to 123 °C"}

// field: melting point; key: Cn1c(CO)ccc1S(=O)(=O)N1CCC(CCO)(Sc2cc(C(C)(C)C)c(O)c(C(C)(C)C)c2)CC1 ; value = 126 to 127 °C

// field: melting point; key: Cn1c(CO)ccc1S(=O)(=O)N1CC[C@H](Sc2cc(C(C)(C)C)c(O)c(C(C)(C)C)c2)C1 ; value = 68 to 70 °C

// field: melting point; key: Cn1c(CO)ccc1S(=O)(=O)N1CCC(Sc2cc(C(C)(C)C)c(O)c(C(C)(C)C)c2)CC1 ; value = 64 to 65 °C
